Test: ATG_E_Box_CIS: Attagene CIS-FACTORIAL HepG2 Assay for human Enhancer Box (E-box) (AID 2282936)
Conditions: HepG2 E-box cis-reporter transcription, actives raise or lower the signal
Activity calls are given as the source filed them. How the source made its calls: active means hit-call score of the fitted dose curve at least 0.9, where 1 is the maximum; inactive means score below 0.9.
// classify into T (active), F (inactive)

Some solved entries appear below for comparison.
{"compound": "Clc1ccc(C(c2ccccc2Cl)C(Cl)Cl)cc1 (stereo not drawn)", "qualitative.label": "F"}
{"compound": "CCCCCC(=O)CC", "qualitative.label": "F"}
{"compound": "CCC1(c2ccccc2)C(=O)NCNC1=O", "qualitative.label": "F"}
{"compound": "Cc1cc(S(=O)(=O)O)ccc1N=Nc1c(O)ccc2ccccc12", "qualitative.label": "F"}
{"compound": "CC(=O)CC(=O)Nc1ccc(C)cc1C", "qualitative.label": "F"}
{"compound": "CCCCCCCC(=O)OCCCCCC", "qualitative.label": "F"}

What classification did `CN(C)c1cccc(O)c1` end up with in this test? F

What classification did CCOC(=O)C1OC1c1ccccc1 (stereo not drawn) end up with in this test? T
